The values you see were collected from patent US20230073777A1.

Target System: P300 (Homo sapiens)
Sequence (Q09472 whole entry): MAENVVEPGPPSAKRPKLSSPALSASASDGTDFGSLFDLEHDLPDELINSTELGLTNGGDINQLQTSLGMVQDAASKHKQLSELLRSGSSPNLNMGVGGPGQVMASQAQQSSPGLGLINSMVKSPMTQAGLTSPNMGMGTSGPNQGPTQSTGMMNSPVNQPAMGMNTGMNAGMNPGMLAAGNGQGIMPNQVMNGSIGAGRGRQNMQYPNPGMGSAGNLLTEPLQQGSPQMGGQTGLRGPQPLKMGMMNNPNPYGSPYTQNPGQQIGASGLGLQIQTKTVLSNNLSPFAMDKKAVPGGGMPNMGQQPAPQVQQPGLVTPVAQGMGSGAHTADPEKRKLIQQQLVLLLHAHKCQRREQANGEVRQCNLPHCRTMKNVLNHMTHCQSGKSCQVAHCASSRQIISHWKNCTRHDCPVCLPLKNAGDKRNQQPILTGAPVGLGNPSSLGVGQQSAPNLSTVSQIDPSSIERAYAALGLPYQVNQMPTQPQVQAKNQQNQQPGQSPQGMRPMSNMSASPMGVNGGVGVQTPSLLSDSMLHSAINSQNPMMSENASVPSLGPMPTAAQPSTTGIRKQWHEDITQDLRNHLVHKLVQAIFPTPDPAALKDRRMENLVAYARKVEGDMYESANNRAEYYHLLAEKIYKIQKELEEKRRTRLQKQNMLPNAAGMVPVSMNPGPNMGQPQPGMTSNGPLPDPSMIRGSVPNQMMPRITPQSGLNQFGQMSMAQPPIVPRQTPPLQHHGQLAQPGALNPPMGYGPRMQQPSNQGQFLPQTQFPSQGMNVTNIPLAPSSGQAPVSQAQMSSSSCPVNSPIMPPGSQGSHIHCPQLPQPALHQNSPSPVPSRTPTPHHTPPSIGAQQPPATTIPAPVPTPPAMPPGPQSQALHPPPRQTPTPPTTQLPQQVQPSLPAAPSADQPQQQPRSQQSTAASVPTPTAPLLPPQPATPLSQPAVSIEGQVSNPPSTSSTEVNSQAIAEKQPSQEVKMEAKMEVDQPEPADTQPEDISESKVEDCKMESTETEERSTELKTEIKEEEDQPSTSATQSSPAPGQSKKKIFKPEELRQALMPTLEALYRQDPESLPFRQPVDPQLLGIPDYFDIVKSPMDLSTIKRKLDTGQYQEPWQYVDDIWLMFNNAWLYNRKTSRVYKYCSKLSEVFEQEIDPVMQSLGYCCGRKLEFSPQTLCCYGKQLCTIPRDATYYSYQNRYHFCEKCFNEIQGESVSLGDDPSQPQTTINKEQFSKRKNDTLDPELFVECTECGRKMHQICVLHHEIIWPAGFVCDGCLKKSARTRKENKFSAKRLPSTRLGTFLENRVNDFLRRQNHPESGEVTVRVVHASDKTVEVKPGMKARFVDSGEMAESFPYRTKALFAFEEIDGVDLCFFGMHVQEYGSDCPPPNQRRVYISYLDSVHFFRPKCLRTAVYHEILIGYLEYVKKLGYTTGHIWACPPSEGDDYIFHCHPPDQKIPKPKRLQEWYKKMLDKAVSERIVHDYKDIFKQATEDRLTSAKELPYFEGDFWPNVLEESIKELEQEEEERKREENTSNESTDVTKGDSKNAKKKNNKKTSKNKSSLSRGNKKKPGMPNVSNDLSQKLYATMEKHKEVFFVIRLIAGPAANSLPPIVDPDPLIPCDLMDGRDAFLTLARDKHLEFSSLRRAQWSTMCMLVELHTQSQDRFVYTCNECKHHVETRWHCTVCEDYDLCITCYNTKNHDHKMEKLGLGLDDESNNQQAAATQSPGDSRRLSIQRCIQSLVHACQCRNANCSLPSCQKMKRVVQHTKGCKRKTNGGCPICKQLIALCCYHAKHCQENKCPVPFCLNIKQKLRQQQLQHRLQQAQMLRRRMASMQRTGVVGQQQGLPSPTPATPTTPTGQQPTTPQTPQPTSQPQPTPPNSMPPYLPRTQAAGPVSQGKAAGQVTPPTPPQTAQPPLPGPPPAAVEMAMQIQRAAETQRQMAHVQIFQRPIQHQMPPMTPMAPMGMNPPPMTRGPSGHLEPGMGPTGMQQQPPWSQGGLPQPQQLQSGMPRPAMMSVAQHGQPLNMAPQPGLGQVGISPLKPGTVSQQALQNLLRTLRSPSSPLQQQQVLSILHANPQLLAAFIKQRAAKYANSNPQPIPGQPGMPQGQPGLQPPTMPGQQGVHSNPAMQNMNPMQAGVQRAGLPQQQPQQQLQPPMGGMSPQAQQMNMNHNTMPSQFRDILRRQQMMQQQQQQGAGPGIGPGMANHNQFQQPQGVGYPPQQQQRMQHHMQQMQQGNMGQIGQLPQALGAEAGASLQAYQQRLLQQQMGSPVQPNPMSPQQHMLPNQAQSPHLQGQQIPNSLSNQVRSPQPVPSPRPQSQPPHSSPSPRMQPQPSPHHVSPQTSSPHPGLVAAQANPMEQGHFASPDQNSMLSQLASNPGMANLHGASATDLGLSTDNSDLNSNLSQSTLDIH
Experiment Description: Immunoblotting of P300 protein levels in LNCaP or 22RV1 cells
Assay type: cell-based
Set-up: LNCaP or 22RV1 cells that express CBP/P300 proteins were treated with GNE-781 or the bivalent compounds; endogenous in cells; host or cells: LNCaP (clone FGC) or 22RV1 cells
Run Parameters: percentage of inhibition of p300 at 10 nM (Table 2); read-out: Degradation (10 nM)
Assay Readout: inhibition at 0.01 µM

# return inhibition at 0.01 µM for each item in the list
1. CNC(=O)N1CCc2c(c(N3CCCc4cc(-c5cnn(CC(=O)NCCOCCOCCOCCNc6ccc7c(c6)C(=O)N(C6CCC(=O)NC6=O)C7=O)c5)c(C(F)F)cc43)nn2C2CCOCC2)C1 (stereo not drawn)
2. CNC(=O)N1CCc2c(c(N3CCCc4cc(-c5cnn(C)c5)c(C(F)F)cc43)nn2C2CCN(C(=O)CCCCCNc3cccc4c3C(=O)N(C3CCC(=O)NC3=O)C4=O)CC2)C1 (stereo not drawn)
3. CNC(=O)N1CCc2c(c(N3CCCc4cc(-c5cnn(CC(=O)NCCCNc6cccc7c6C(=O)N(C6CCC(=O)NC6=O)C7=O)c5)c(C(F)F)cc43)nn2C2CCOCC2)C1 (stereo not drawn)
4. CNC(=O)N1CCc2c(c(N3CCCc4cc(-c5cnn(C)c5)c(C(F)F)cc43)nn2C2CCN(C(=O)CCNc3cccc4c3C(=O)N(C3CCC(=O)NC3=O)C4=O)CC2)C1 (stereo not drawn)
5. CNC(=O)N1CCc2c(c(N3CCCc4cc(-c5cnn(CC(=O)NCCCCCCCCNc6cccc7c6C(=O)N(C6CCC(=O)NC6=O)C7=O)c5)c(C(F)F)cc43)nn2C2CCOCC2)C1 (stereo not drawn)
6. CNC(=O)N1CCc2c(c(N3CCCc4cc(-c5cnn(C)c5)c(C(F)F)cc43)nn2C2CCN(C(=O)CCCCNc3cccc4c3C(=O)N(C3CCC(=O)NC3=O)C4=O)CC2)C1 (stereo not drawn)

1. < 20%
2. > 80%
3. < 20%
4. < 20%
5. 20 to 50%
6. > 80%

# return inhibition at 0.01 µM for each item in the list
1. CNC(=O)N1CCc2c(c(N3CCCc4cc(-c5cnn(C)c5)c(C(F)F)cc43)nn2C2CCN(C(=O)CCCCCCCNc3ccc4c(c3)C(=O)N(C3CCC(=O)NC3=O)C4=O)CC2)C1 (stereo not drawn)
2. CNC(=O)N1CCc2c(c(N3CCCc4cc(-c5cnn(CC(=O)NCCCCCNc6cccc7c6C(=O)N(C6CCC(=O)NC6=O)C7=O)c5)c(C(F)F)cc43)nn2C2CCOCC2)C1 (stereo not drawn)
3. CNC(=O)N1CCc2c(c(N3CCCc4cc(-c5cnn(C)c5)c(C(F)F)cc43)nn2C2CCN(C(=O)CCNc3ccc4c(c3)C(=O)N(C3CCC(=O)NC3=O)C4=O)CC2)C1 (stereo not drawn)
4. CNC(=O)N1CCc2c(c(N3CCCc4cc(-c5cnn(CC(=O)NCCOCCOCCNc6ccc7c(c6)C(=O)N(C6CCC(=O)NC6=O)C7=O)c5)c(C(F)F)cc43)nn2C2CCOCC2)C1 (stereo not drawn)
5. CNC(=O)N1CCc2c(c(N3CCCc4cc(-c5cnn(CC(=O)NCCNc6cccc7c6C(=O)N(C6CCC(=O)NC6=O)C7=O)c5)c(C(F)F)cc43)nn2C2CCOCC2)C1 (stereo not drawn)

["> 80%", "< 20%", "50 to 80%", "< 20%", "< 20%"]
